target: Cbl-b (Homo sapiens); construct: Cbl-b-HiBit KI Jurkat Cells were purchased from Promega; host or cells: Cbl-b-HiBiT knock-in Jurkat cells; experiment: Cbl-b Degradation Method B (Nano-Glo HiBiT lytic detection); assay type: cell-based; conditions: Cbl-b-HiBit KI Jurkat Cells, incubated at least 6-24 hours; maximum degradation observed
Sequence (Q13191 whole entry): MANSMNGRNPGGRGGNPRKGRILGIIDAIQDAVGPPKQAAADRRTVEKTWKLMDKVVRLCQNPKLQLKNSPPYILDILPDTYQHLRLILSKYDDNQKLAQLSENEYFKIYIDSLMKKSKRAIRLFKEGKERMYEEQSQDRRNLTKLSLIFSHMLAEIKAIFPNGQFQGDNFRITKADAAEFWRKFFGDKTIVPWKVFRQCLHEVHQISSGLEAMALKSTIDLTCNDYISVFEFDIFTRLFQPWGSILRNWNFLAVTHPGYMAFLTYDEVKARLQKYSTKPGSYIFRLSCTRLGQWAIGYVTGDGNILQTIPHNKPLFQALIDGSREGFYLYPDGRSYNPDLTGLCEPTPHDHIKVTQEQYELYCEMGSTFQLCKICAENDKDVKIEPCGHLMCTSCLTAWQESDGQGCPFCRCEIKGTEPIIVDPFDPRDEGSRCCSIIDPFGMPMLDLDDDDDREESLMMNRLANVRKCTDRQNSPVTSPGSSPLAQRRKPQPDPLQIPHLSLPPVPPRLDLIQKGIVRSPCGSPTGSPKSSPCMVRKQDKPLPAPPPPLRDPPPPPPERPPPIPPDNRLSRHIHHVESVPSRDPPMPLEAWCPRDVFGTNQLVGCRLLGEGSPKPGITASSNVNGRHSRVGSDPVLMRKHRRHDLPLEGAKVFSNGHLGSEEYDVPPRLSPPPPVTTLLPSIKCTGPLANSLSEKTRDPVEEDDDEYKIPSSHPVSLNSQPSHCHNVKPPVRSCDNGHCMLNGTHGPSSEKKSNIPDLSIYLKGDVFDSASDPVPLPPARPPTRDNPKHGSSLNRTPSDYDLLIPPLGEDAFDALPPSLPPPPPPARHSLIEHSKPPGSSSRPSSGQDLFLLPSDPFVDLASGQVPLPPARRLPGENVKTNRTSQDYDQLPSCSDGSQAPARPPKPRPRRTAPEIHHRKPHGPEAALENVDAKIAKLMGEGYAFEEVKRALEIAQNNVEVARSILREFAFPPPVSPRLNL
propertyLabel: Cbl-b Degredation Method B Dmax (%)

As a guide, the following entries are already answered.
compound: COC1CC(Cc2nncn2C)(c2cccc(N3Cc4c(cc(CN5CCN(C[C@H]6CC[C@H](OC7CCN(c8ccc9c(n8)C(C)N(C8CCC(=O)NC8=O)C9=O)CC7)CC6)CC5(C)C)cc4C(F)(F)F)C3=O)c2)C1 (some centres unmarked) [Example 294]
propertyLabel: Cbl-b Degredation Method B Dmax (%)
result: C (C ≤ 35)
--
compound: Cn1cnnc1CC1(c2cccc(N3Cc4c(cc(CN5CCN(C[C@H]6CC[C@H](OC7CCN(c8cccc9c8CC(=O)N9C8CCC(=O)NC8=O)CC7)CC6)CC5(C)C)cc4C(F)(F)F)C3=O)c2)CC(C#N)C1 (some centres unmarked) [Example 315]
propertyLabel: Cbl-b Degredation Method B Dmax (%)
result: C (C ≤ 35)
--
compound: CC(C)n1c(=O)n(C2CCC(=O)NC2=O)c2cccc(N3CCC(O[C@H]4CC[C@H](CN5CCC6(CC5)CN(Cc5cc7c(c(C(F)(F)F)c5)CN(c5cccc([C@]8(Cc9nncn9C)C[C@@H](C#N)C8)c5)C7=O)C6)CC4)CC3)c21 (some centres unmarked) [Example 320]
propertyLabel: Cbl-b Degredation Method B Dmax (%)
result: C (C ≤ 35)
--
compound: CC(C)n1c(=O)n(C2CCC(=O)NC2=O)c2cccc(N3CCC(O[C@H]4CC[C@H](CN5CCN(Cc6cc7c(c(C(F)(F)F)c6)CN(c6cccc([C@]8(Cc9nncn9C)C[C@@H](C#N)C8)c6)C7=O)CC[C@H]5C)CC4)CC3)c21 (some centres unmarked) [Example 323]
propertyLabel: Cbl-b Degredation Method B Dmax (%)
result: C (C ≤ 35)
--
compound: Cn1cnnc1C[C@]1(c2cccc(N3Cc4c(cc(CN5CCN(C[C@H]6CC[C@H](OC7CCN(c8ccc9c(n8)n(C)c(=O)n9C8CCC(=O)NC8=O)CC7)CC6)CC5(C)C)cc4C(F)(F)F)C3=O)c2)C[C@H](C#N)C1 (some centres unmarked) [Example 300]
propertyLabel: Cbl-b Degredation Method B Dmax (%)
result: C (C ≤ 35)

Problem: Supply measured Cbl-b Degredation Method B Dmax (%) of CC(C)n1c(=O)n(C2CCC(=O)NC2=O)c2cccc(N3CCC(O[C@H]4CC[C@H](CN5CCN(Cc6cc7c(c(C(F)(F)F)c6)CN(c6cccc([C@]8(Cc9nncn9C)C[C@@H](C#N)C8)c6)C7=O)C6(COC6)C5)CC4)CC3)c21 (some centres unmarked) [Example 322] in your reply.
Result: C (C ≤ 35)

Problem: For CC1c2nc(N3CCC(CN4CCN(CC5CCN(Cc6cc7c(c(C(F)(F)F)c6)CN(c6cccc([C@]8(Cc9nncn9C)C[C@@H](C#N)C8)c6)C7=O)C6(CC6)C5)CC4)CC3)ccc2C(=O)N1C1CCC(=O)NC1=O (some centres unmarked) [Example 310] , write its Cbl-b Degredation Method B Dmax (%).
Result: C (C ≤ 35)

Problem: Give the value of Cbl-b Degredation Method B Dmax (%) reported for the following: CC(C)n1c(=O)n(C2CCC(=O)NC2=O)c2cccc(N3CCC(O[C@H]4CC[C@H](CN5CCC6(CCN(Cc7cc8c(c(C(F)(F)F)c7)CN(c7cccc([C@]9(Cc%10nncn%10C)C[C@@H](C#N)C9)c7)C8=O)CC6)CC5)CC4)CC3)c21 (some centres unmarked) [Example 317]
Result: C (C ≤ 35)
